// endpoint MIC / system M. smegmatis
property name: MIC

compound structure string | recorded measurement
CCC(CC)N1CCN(c2nc(=O)c3cc(C(F)(F)F)cc([N+](=O)[O-])c3s2)CC1 | ≤ 1.9 ng/mL
CCCN1CCN(c2nc(=O)c3cc(C(F)(F)F)cc([N+](=O)[O-])c3s2)CC1 | ≤ 190 ng/mL
O=c1nc(N2CCN(CCCOc3ccc(F)cc3)CC2)sc2c([N+](=O)[O-])cc(Cl)cc12 | ≤ 1.9 ng/mL
O=c1nc(N2CCN(CCCOc3ccc(F)cc3)CC2)sc2c([N+](=O)[O-])cc(C(F)(F)F)cc12 | ≤ 1.9 ng/mL
